- Target Of Assay: FGFR2 (Homo sapiens)
- Construct: made in house; host or cells: E. coli derived from BL21, infected with T7 phage
- Assay Explanation: Kinase binding assay (kinase-tagged T7 phage, qPCR), Kd
- Assay Conditions: read-out: FGFR2 (Kd nM)

# Smiles String, Kd
data = [
    ("C[C@@H](Oc1ccc2[nH]nc(-c3cnc4c(c3)N(C(=O)c3ccccn3)CCO4)c2c1)c1c(Cl)cncc1Cl", "100 to 250 nM"),
    ("COc1ncc(-c2n[nH]c3ccc(O[C@H](C)c4c(Cl)cncc4Cl)cc23)cc1NC(=O)c1cccc2cccnc12", "> 1000 nM"),
    ("COc1ncc(-c2n[nH]c3ccc(O[C@H](C)c4c(Cl)cncc4Cl)cc23)cc1NCc1ccccn1", "> 1000 nM"),
    ("C[C@@H](Oc1ccc2[nH]nc(-c3cnc4c(c3)OCC(=O)N4)c2c1)c1c(Cl)cncc1Cl", "0.1 to 100 nM"),
]

###

- Target Of Assay: FGFR3 (Homo sapiens, UniProt P22607)
- Construct: made in house; host or cells: E. coli derived from BL21, infected with T7 phage
- Sequence (P22607 23-806): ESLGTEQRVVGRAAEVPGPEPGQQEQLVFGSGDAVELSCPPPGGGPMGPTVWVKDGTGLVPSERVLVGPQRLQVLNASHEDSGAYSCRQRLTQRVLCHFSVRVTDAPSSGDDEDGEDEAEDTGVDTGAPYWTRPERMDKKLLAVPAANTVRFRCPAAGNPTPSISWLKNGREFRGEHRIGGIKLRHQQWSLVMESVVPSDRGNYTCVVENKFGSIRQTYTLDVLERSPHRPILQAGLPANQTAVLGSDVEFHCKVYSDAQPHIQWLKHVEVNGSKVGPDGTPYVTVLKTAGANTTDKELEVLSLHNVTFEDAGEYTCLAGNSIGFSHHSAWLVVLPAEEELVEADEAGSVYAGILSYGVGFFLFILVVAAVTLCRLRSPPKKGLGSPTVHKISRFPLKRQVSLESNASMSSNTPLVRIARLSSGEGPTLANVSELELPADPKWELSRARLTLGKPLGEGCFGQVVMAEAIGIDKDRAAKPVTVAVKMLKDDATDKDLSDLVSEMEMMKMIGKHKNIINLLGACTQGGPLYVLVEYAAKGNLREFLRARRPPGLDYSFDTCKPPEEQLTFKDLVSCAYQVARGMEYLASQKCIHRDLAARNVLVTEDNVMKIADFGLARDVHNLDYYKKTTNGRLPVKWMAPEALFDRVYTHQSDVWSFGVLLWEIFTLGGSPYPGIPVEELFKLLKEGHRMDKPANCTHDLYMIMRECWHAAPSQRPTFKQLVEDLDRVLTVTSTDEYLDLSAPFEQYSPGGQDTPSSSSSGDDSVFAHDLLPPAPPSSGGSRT
- Assay Explanation: Kinase binding assay (kinase-tagged T7 phage, qPCR), Kd
- Assay Conditions: read-out: FGFR3 (Kd nM)
# maps each entry to its Kd

# Compound, Kd
rows = [
    ("Cc1cc(-c2n[nH]c3ccc(O[C@@H](C)c4c(C)cnnc4C)cc23)cc(C#N)n1 [Example 70]", "> 1000 nM"),
    ("C[C@@H](Oc1ccc2[nH]nc(-c3ccc(NC(=O)N(C)C)nc3)c2c1)c1c(Cl)cncc1Cl [Example 14]", "0.1 to 100 nM"),
    ("C[C@@H](Oc1ccc2[nH]nc(-c3cnc4c(c3)N(C(=O)CN(C)C)CCO4)c2c1)c1c(Cl)cncc1Cl [Example 21]", "250 to 1000 nM"),
    ("C[C@@H](Oc1ccc2[nH]nc(-c3ccc(NC(=O)CN(C)C)nc3)c2c1)c1c(Cl)cncc1Cl [Example 13]", "0.1 to 100 nM"),
    ("CCN1CCC2(CC1)CC(=O)c1cc(-c3n[nH]c4ccc(O[C@H](C)c5c(C)cnnc5C)cc34)ccc1O2 [Example 99]", "0.1 to 100 nM"),
    ("Cc1cc(-c2n[nH]c3ccc(O[C@H](C)c4c(C)cnnc4C)cc23)cc(C#N)c1OC1CCN(C2CCC2)CC1 [Example 120]", "0.1 to 100 nM"),
    ("C[C@@H](Oc1ccc2[nH]nc(-c3ccc(OC4CC5(COC5)C4)nc3)c2c1)c1c(Cl)cncc1Cl [Example 161]", "0.1 to 100 nM"),
]

###

- Target Of Assay: FGFR4 (Homo sapiens)
- Construct: made in house; host or cells: E. coli derived from BL21, infected with T7 phage
- Assay Explanation: Kinase binding assay (kinase-tagged T7 phage, qPCR), Kd
- Assay Conditions: read-out: FGFR4 (Kd nM)

# Compound, Kd
measured = [
    ("Cc1cnnc(C)c1[C@H](C)Oc1ccc2[nH]nc(-c3cc(C#N)cc(N4CCOCC4)c3)c2c1 [Example 65]", "> 1000 nM"),
    ("Cc1cnnc(C)c1[C@@H](C)Oc1ccc2[nH]nc(-c3cnc(N(C)C)c(C#N)c3)c2c1 [Example 89]", "0.1 to 100 nM"),
    ("COc1cc(NCc2cccnc2)cc(-c2n[nH]c3ccc(O[C@H](C)c4c(Cl)cncc4Cl)cc23)c1 [Example 47]", "250 to 1000 nM"),
    ("Cc1cc(-c2n[nH]c3ccc(O[C@@H](C)c4c(C)cnnc4C)cc23)cc(C#N)n1 [Example 70]", "> 1000 nM"),
    ("COc1c(C)cc(-c2n[nH]c3ccc(O[C@H](C)c4c(C)cnnc4C)cc23)cc1C#N [Example 80]", "0.1 to 100 nM"),
    ("C[C@@H](Oc1ccc2[nH]nc(-c3ccc(OC4CC5(C4)CN(S(C)(=O)=O)C5)nc3)c2c1)c1c(Cl)cncc1Cl [Example 152]", "0.1 to 100 nM"),
    ("C[C@@H](Oc1ccc2[nH]nc(-c3cnc(N)c(OCC(F)(F)F)c3)c2c1)c1c(Cl)cncc1Cl [Example 37]", "0.1 to 100 nM"),
]

###

# maps each entry to its Kd
- Target Of Assay: FGFR1 (Homo sapiens)
- Construct: made in house; host or cells: E. coli derived from BL21, infected with T7 phage
- Sequence (P11362 22-822): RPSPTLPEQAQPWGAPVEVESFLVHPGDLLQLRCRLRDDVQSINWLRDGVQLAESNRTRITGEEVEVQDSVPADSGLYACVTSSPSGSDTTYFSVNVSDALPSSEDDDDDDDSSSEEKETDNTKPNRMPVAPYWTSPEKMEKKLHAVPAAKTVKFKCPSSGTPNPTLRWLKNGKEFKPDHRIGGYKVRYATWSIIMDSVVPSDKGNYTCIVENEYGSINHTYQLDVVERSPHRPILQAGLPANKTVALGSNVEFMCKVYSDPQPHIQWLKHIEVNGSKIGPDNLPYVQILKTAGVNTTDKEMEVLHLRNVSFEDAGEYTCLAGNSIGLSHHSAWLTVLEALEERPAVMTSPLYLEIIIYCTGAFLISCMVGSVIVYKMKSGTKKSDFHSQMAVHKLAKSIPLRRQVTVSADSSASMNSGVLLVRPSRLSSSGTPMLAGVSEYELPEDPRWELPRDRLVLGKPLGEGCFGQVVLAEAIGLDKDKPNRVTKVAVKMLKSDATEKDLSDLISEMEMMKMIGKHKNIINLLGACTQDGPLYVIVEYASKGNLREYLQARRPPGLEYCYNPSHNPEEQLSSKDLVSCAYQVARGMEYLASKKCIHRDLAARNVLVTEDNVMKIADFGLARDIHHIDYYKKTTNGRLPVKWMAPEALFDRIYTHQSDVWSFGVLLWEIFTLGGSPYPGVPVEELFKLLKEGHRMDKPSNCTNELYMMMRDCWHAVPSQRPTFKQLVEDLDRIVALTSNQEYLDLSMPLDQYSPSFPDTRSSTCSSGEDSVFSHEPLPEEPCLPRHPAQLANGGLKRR
- Assay Explanation: Kinase binding assay (kinase-tagged T7 phage, qPCR), Kd
- Assay Conditions: read-out: FGFR1 (Kd nM)

# Molecule, Kd
records = [
    ("C[C@@H](Oc1ccc2[nH]nc(-c3cnc(NC(=O)CN(C)C)c(F)c3)c2c1)c1c(Cl)cncc1Cl [Example 22]", "0.1 to 100 nM"),
    ("C[C@@H](Oc1ccc2[nH]nc(-c3cnc4c(c3)N(C(=O)CN(C)C)CCO4)c2c1)c1c(Cl)cncc1Cl [Example 21]", "> 1000 nM"),
    ("COc1cc2[nH]nc(-c3cnc(O[C@@H]4CCOC4)c(C#N)c3)c2cc1O[C@H](C)c1c(Cl)cncc1Cl [Example 136]", "0.1 to 100 nM"),
    ("Cc1cc(-c2n[nH]c3ccc(O[C@H](C)c4c(C)cnnc4C)cc23)cc(C#N)c1OC1CCN(C2CCC2)CC1 [Example 120]", "0.1 to 100 nM"),
    ("Cc1cc(-c2n[nH]c3ccc(O[C@H](C)c4c(C)cnnc4C)cc23)cc(C#N)n1 [Example 69]", "100 to 250 nM"),
    ("Cc1cnnc(C)c1[C@@H](C)Oc1ccc2[nH]nc(-c3cc(C#N)cc(OC(C)C)c3)c2c1 [Example 57]", "250 to 1000 nM"),
    ("COc1cc(OC(C)C)cc(-c2n[nH]c3ccc(O[C@H](C)c4c(C)cnnc4C)cc23)c1 [Example 60]", "> 1000 nM"),
]

###

- Target Of Assay: FGFR4 (Homo sapiens, UniProt P22455)
- Construct: made in house; host or cells: E. coli derived from BL21, infected with T7 phage
- Sequence (P22455 22-802): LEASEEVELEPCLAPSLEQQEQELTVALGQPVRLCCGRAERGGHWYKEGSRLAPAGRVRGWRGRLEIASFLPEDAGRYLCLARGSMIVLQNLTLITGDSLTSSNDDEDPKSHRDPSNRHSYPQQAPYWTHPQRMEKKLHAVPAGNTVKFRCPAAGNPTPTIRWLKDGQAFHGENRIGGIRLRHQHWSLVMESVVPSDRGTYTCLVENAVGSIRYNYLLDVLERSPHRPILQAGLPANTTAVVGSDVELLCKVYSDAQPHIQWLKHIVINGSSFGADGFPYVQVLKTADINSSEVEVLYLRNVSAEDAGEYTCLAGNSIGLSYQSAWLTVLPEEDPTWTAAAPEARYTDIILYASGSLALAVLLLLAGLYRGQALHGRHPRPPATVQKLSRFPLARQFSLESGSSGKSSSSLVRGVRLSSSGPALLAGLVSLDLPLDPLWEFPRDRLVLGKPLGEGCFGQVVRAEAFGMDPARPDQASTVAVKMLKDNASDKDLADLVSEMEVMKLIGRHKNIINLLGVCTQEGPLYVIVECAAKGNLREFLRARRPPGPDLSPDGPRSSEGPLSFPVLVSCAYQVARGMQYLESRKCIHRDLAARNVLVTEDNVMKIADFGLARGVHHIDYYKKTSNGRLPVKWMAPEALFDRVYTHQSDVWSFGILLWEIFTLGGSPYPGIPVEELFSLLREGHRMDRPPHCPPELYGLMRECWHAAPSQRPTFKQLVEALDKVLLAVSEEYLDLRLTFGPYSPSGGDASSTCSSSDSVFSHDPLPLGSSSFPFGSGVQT
- Assay Explanation: Kinase binding assay (kinase-tagged T7 phage, qPCR), Kd
- Assay Conditions: read-out: FGFR4 (Kd nM)

# Compound, Kd
data = [
    ("COc1cc(-c2n[nH]c3ccc(O[C@H](C)c4c(Cl)cncc4Cl)cc23)cnc1N", "0.1 to 100 nM"),
    ("C[C@@H](Oc1ccc2[nH]nc(-c3ccc(NC(=O)N4CCC(O)C4)nc3)c2c1)c1c(Cl)cncc1Cl (stereo partly shown)", "0.1 to 100 nM"),
    ("C[C@@H](Oc1ccc2[nH]nc(-c3cc(C#N)cc(C4CC4)c3)c2c1)c1c(Cl)cncc1Cl", "0.1 to 100 nM"),
    ("COc1cc(-c2n[nH]c3ccc(O[C@H](C)c4c(C)cnnc4C)cc23)cc2c1OC1(CCN(C(C)C)CC1)OC2", "0.1 to 100 nM"),
]

###

- Target Of Assay: FGFR2 (Homo sapiens, UniProt P21802)
- Construct: made in house; host or cells: E. coli derived from BL21, infected with T7 phage
- Sequence (P21802 22-821): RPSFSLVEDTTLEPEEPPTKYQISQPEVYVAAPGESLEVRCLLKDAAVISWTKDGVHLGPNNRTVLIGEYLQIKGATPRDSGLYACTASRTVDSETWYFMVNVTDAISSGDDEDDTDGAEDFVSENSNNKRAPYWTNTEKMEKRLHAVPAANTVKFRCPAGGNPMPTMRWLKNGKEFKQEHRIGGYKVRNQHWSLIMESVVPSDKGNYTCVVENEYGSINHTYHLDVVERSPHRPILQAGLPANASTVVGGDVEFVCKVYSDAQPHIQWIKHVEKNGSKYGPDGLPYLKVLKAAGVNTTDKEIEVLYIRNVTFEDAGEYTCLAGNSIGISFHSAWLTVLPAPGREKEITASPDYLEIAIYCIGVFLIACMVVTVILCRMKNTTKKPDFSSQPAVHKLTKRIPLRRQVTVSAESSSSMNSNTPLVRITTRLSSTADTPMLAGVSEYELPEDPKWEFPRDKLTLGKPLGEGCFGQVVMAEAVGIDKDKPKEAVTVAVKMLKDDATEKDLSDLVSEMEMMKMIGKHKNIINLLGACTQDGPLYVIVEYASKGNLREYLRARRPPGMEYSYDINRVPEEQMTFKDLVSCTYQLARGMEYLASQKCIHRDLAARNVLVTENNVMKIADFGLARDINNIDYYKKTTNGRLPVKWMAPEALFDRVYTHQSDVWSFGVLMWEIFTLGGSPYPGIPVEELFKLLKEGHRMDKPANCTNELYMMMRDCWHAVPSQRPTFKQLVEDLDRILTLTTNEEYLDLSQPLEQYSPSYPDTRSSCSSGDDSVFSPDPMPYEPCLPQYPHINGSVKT
- Assay Explanation: Kinase binding assay (kinase-tagged T7 phage, qPCR), Kd
- Assay Conditions: read-out: FGFR2 (Kd nM)
# maps each entry to its Kd
Measurement Type: Kd

# Smiles String, Target Of Assay, Value Reported
rows = [
    ("C[C@@H](Oc1ccc2[nH]nc(-c3ccc4c(c3)COC3(CCN(CC(F)(F)F)CC3)O4)c2c1)c1c(Cl)cncc1Cl", "FGFR2 (Homo sapiens, UniProt P21802)", "100 to 250 nM"),
    ("CCOc1cc(OC)cc(-c2n[nH]c3ccc(O[C@H](C)c4c(C)cnnc4C)cc23)c1", "FGFR2 (Homo sapiens, UniProt P21802)", "250 to 1000 nM"),
    ("C[C@@H](Oc1ccc2[nH]nc(-c3cnc4c(c3)N(CC(F)F)CCO4)c2c1)c1c(Cl)cncc1Cl", "FGFR2 (Homo sapiens, UniProt P21802)", "> 1000 nM"),
    ("Cc1cc(-c2n[nH]c3ccc(O[C@H](C)c4c(Cl)cncc4Cl)cc23)cnc1NC1CCOCC1", "FGFR2 (Homo sapiens, UniProt P21802)", "100 to 250 nM"),
    ("C[C@@H](Oc1cc2c(-c3cnc4c(c3)N(S(C)(=O)=O)CCO4)n[nH]c2cc1Cl)c1c(Cl)cncc1Cl", "FGFR2 (Homo sapiens, UniProt P21802)", "> 1000 nM"),
    ("COc1cc(-c2n[nH]c3ccc(O[C@H](C)c4c(Cl)cnc(F)c4Cl)cc23)cc2c1OC1(CCN(C(C)C)CC1)OC2", "FGFR2 (Homo sapiens, UniProt P21802)", "250 to 1000 nM"),
    ("COc1cc2[nH]nc(-c3cc(C)c(OC)c(C#N)c3)c2cc1O[C@H](C)c1c(C)cnnc1C", "FGFR2 (Homo sapiens, UniProt P21802)", "0.1 to 100 nM"),
    ("C=CC(=O)N1CCOc2ncc(-c3n[nH]c4ccc(O[C@H](C)c5c(Cl)cncc5Cl)cc34)cc21", "FGFR2 (Homo sapiens, UniProt P21802)", "> 1000 nM"),
    ("Cc1cnnc(C)c1[C@@H](C)Oc1ccc2[nH]nc(-c3cc(C#N)cc(OCCO)c3)c2c1", "FGFR2 (Homo sapiens, UniProt P21802)", "0.1 to 100 nM"),
    ("Cc1cc(-c2n[nH]c3ccc(O[C@H](C)c4c(C)cnnc4C)cc23)cc(C#N)c1F", "FGFR2 (Homo sapiens, UniProt P21802)", "100 to 250 nM"),
    ("C[C@@H](Oc1ccc2[nH]nc(-c3ccnc(N)c3)c2c1)c1c(Cl)cncc1Cl", "FGFR2 (Homo sapiens, UniProt P21802)", "0.1 to 100 nM"),
    ("Cc1ncc(Cl)c([C@@H](C)Oc2ccc3[nH]nc(-c4ccc(N[C@H]5CCOC5)nc4)c3c2)c1Cl", "FGFR2 (Homo sapiens, UniProt P21802)", "0.1 to 100 nM"),
    ("COc1ncc(-c2n[nH]c3ccc(O[C@H](C)c4c(Cl)cncc4Cl)cc23)cc1NC(=O)CN(C)C", "FGFR2 (Homo sapiens, UniProt P21802)", "> 1000 nM"),
    ("C[C@@H](Oc1ccc2[nH]nc(-c3cnc4c(c3)N(Cc3ccccn3)CCO4)c2c1)c1c(Cl)cncc1Cl", "FGFR2 (Homo sapiens, UniProt P21802)", "> 1000 nM"),
    ("CCOc1cc(OC)cc(-c2n[nH]c3ccc(O[C@@H](C)c4c(C)cnnc4C)cc23)c1", "FGFR2 (Homo sapiens, UniProt P21802)", "> 1000 nM"),
]
